// provenance: ChEMBL document CHEMBL5030536

# experimental.system: Adenosine receptor A1 (Homo sapiens, UniProt P30542)
# Sequence (P30542 whole entry): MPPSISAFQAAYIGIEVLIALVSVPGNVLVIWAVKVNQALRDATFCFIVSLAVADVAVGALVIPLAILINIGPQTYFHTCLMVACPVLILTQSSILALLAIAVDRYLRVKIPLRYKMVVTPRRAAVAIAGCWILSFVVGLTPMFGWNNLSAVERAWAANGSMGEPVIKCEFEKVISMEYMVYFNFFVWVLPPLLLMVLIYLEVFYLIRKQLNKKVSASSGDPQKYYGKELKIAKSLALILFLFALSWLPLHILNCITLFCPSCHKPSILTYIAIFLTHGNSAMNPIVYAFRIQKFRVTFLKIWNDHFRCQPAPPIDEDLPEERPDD
# test.method.notes: Displacement of [3H]R-PIA from recombinant human A1 adenosine receptor expressed in CHO cell membrane incubated for 60 mins by liquid scintillation counting method
observation.type: Ki (nM)

>  <smiles.string>
N[C@@H]1CS[C@@H](n2cnc3c(NCc4cccc(I)c4)ncnc32)[C@@H]1O

>  <unit.descriptor>
nM

>  <experimental.value>
2450

$$$$
>  <smiles.string>
CNc1ncnc2c1ncn2[C@@H]1SC[C@@H](N)[C@H]1O

>  <unit.descriptor>
nM

>  <experimental.value>
1670

$$$$
>  <smiles.string>
N[C@@H]1CS[C@@H](n2cnc3c(NCc4cccc(I)c4)nc(Cl)nc32)[C@@H]1O

>  <unit.descriptor>
nM

>  <experimental.value>
2200

$$$$
